// provenance: patent US7807676B2

Test system: HIV-1 single-round infectious reporter virus
Assay: Single-round infectious HIV-1 luciferase reporter virus infection of HeLa CD4 cells (antiviral EC50)
Type: cell-based
Settings: Human immunodeficiency virus 1, HeLa, read-out: EC50 Group from Table 3
pEC50: −log10 of the molar value.
REPORTED_ENDPOINT: pEC50

Some solved entries appear below for comparison.
| SUBSTANCE_SMILES | TARGET_OR_SYSTEM | pEC50 |
| --- | --- | --- |
| COc1cnc(-n2cnc(C)n2)c2[nH]cc(C(=O)C(=O)N3CCN(c4ncccc4C#N)CC3)c12 | HIV-1 single-round infectious reporter virus | > 6.30 |
| COc1cnc(-c2ccnc(F)c2)c2[nH]cc(C(=O)C(=O)N3CCN(c4nnnn4-c4ccccn4)CC3)c12 | HIV-1 single-round infectious reporter virus | > 6.30 |
| COc1cnc(-n2cnc(C)n2)c2[nH]cc(C(=O)C(=O)N3CCN(c4ncccc4C(=O)N4CCOCC4)C[C@H]3C)c12 | HIV-1 single-round infectious reporter virus | < 6.30 |
| CN(C)CCCN(C)C(=O)c1cc(-c2ncc(F)c3c(C(=O)C(=O)N4CCN(c5nnnn5-c5ccccc5)CC4)c[nH]c23)n[nH]1 | HIV-1 single-round infectious reporter virus | > 6.30 |

Now for another entry.
Which pEC50 is reported for this compound? `COc1cnc(-n2cnc(C)n2)c2[nH]cc(C(=O)C(=O)N3CCN(c4nn(C)nc4-c4ccccc4)CC3)c12` > 6.30
